tested on: E. coli; experiment: Gram negative MIC protocol (OD600, LB, 24 h); conditions: Escherichia coli, read-out: MIC WT E. coli LB Media, wild-type E. coli, LB media, 24 h, OD600
Counter-ions that a name gives are not always drawn.

- molecule: "CC(CC1CCCCC1)NCc1ccccc1OCCCn1c(=O)[nH]c2ccccc21 (stereo not shown)"
  relationalOperator: "="
  MIC [µM]: 150
- molecule: "CC1CCC(Oc2ccccc2CNC(C)CC2CCCCC2)CC1 (stereo not shown)"
  relationalOperator: "="
  MIC [µM]: 150
- molecule: "CC(CC1CCCCC1)NCc1ccccc1OCC(=O)NC(C)C(=O)N(C)C (stereo not shown)"
  relationalOperator: ">"
  MIC [µM]: 150
- molecule: "O=C(O)c1ccccc1CNCCC1CCCCC1 [B257, hydrochloride]"
  relationalOperator: ">"
  MIC [µM]: 150
- molecule: "CCc1cnc(COc2ccccc2CNC(C)CC2CCCCC2)o1 (stereo not shown)"
  relationalOperator: ">"
  MIC [µM]: 150
- molecule: "CCOCOc1ccccc1CNC(C)CC1CCCCC1 (stereo not shown)"
  relationalOperator: ">"
  MIC [µM]: 150
- molecule: "CC(CC1CCCCC1)NCc1ccccc1OCCOCC(F)(F)F (stereo not shown)"
  relationalOperator: ">"
  MIC [µM]: 150
- molecule: "c1ccc(Oc2ccccc2CNCCC2CCCCC2)cc1 [B232, hydrochloride]"
  relationalOperator: "="
  MIC [µM]: 170
- molecule: "c1ccc(-c2ccccc2CNCCC2CCCCC2)cc1 [B229, hydrochloride]"
  relationalOperator: "="
  MIC [µM]: 170
- molecule: "CC(CC1CCCCC1)NCc1ccccc1OCC(=O)N1CCOCC1 (stereo not shown)"
  relationalOperator: ">"
  MIC [µM]: 150
